- TARGET_ENTITY: T1, human DLL3 (ACRO, DLL3-H52H4) (human, UniProt Q9NYJ7 27-492)
- T1 construct: Bought
- T1 sequence: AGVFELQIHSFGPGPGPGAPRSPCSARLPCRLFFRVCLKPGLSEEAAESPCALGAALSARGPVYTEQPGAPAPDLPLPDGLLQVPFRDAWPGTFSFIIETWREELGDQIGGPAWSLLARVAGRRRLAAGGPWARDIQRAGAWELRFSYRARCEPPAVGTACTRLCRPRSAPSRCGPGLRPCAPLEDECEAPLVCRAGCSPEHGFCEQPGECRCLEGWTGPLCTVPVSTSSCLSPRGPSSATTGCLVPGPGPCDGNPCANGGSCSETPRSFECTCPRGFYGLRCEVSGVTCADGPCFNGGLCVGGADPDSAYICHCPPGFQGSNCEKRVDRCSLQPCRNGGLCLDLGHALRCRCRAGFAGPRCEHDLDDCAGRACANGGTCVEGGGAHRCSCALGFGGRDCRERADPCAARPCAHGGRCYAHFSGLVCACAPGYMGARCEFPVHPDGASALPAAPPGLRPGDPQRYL
- ASSAY_COMMENT: SPR Biacore 8K, Ab captured on Protein A
QUANTITY: koff (s⁻¹)
One number for each entry, in s⁻¹.

hu110L2H4 (antibody, human IgG1, kappa, V domains shown) VH: EVQLVQSGAEVKKPGASVKVSCKTSGYTFTDYYMNWVRQAPGQSLEWMGIINPYSGGTSYTQKFKGRVTITVDKSASTAYMELSSLRSEDTAVYYCARHFYDSSYLTYSTMDYWGQGTTVTVSS VL: NIVMTQSPKSLAVSLGERATINCKASENVGIFVSWYQQKPGQSPKLLIYGASNRYTGVPDRFSGSGSATDFTLTISSLQAEDVADYYCGQSHSYPLTFGQGTKLEIKR | 5.11e-05
hu30L2H1 (antibody, human IgG1, kappa, V domains shown) VH: EVQLVQSGAEVKKPGASVKVSCKASGYTFTDYYMNWVRQAPGQSLEWMGIINPYNGDTSYNQKFRGRVTITVDKSASTAYMELSSLRSEDTAVYYCARYHYGPHLEGYFDVWGQGTTVTVSS VL: DIVMTQSPDSLAVSLGERATINCKASENVGYVSWYQQKPGQPPKLLIYGASNRYTGVPDRFSGSGSATDFTLTISSLQAEDVAVYHCGQSYSYPLTFGQGTKLEIKR | 0.000571

koff in this record for hu110L1H2 (antibody, human IgG1, kappa, V domains shown) VH: EVQLVQSGAEVKKPGASVKVSCKTSGYTFTDYYMNWVRQAPGQSLEWMGIINPYNGGTSYTQKFKGRVTITVDKSASTAYMELSSLRSEDTAVYYCARHFYDSSYLTYSTMDYWGQGTTVTVSS VL: DIVMTQSPDSLAVSLGERATINCKASENVGIFVSWYQQKPGQSPKLLIYGASNRYTGVPDRFSGSGSATDFTLTISSLQAEDVAVYYCGQSHSYPLTFGQGTKLEIKR : 4.26e-05

These measurements were taken from patent US20250376519A1.
